target: Bromodomain-containing protein 4 (Homo sapiens, UniProt O60885); test: Inhibition of His-tagged BRD4 bromodomain-1 (unknown origin) expressed in Escherichia coli BL21(DE3) at 20 uM using SGRGK(Ac)-GG-K(Ac)-GLG-K(Ac)-GGA-K(Ac)-RHRKVGG-K-Biotin as substrate preincubated for 15 mins followed by substrate addition measured after 10 mins by Alphascreen assay relative to control
quantityKind: inhibition

The examples below pair each entry with its known result.
CCN1C(=O)c2cccc3c(S(=O)(=O)N4CCC[C@H]4CO)ccc1c23 : 22.4%
O=C(O)CN1C(=O)c2cccc3c(S(=O)(=O)N4CCCC4)ccc1c23 : 4%

Next compound, please.
If you can, please state the reported inhibition value of "CCN1C(=O)c2cccc3c(S(=O)(=O)N4CCC(CN)CC4)ccc1c23" .
74%
